Data credit: BigSolDB 2.1

assay.context: in methanol, 308.15 K
observation.type: solubility (mole fraction)
Provide a numeric answer; units are not to be included.

Prompt: Looking for the measured solubility (mole fraction) of CCS(=O)(=O)c1cccnc1S(=O)(=O)NC(=O)Nc1nc(OC)cc(OC)n1 , can you help?
Completion: 6.37e-05

###

assay.context: in water, 323.15 K
observation.type: solubility (mole fraction)

Prompt: Looking for the measured solubility (mole fraction) of CCS(=O)(=O)c1cccnc1S(=O)(=O)NC(=O)Nc1nc(OC)cc(OC)n1 , can you help?
Completion: 1.02e-06

###

assay.context: in water, 278.15 K
observation.type: solubility (mole fraction)

Prompt: Looking for the measured solubility (mole fraction) of CCS(=O)(=O)c1cccnc1S(=O)(=O)NC(=O)Nc1nc(OC)cc(OC)n1 , can you help?
Completion: 2.28e-07

###

assay.context: in ethylene glycol, 308.15 K
observation.type: solubility (mole fraction)
Provide a numeric answer; units are not to be included.

Prompt: Looking for the measured solubility (mole fraction) of CCS(=O)(=O)c1cccnc1S(=O)(=O)NC(=O)Nc1nc(OC)cc(OC)n1 , can you help?
Completion: 2.08e-05

###

assay.context: in ethanol, 323.15 K
observation.type: solubility (mole fraction)
Provide a numeric answer; units are not to be included.

Prompt: Looking for the measured solubility (mole fraction) of CCS(=O)(=O)c1cccnc1S(=O)(=O)NC(=O)Nc1nc(OC)cc(OC)n1 , can you help?
Completion: 8.5e-05
